Target: vanilloid TRPV1 receptor (Rattus norvegicus, UniProt O35433)
Construct: rat trigeminal neuronal cells, that therefore were identified as TRPV1 expressing neurons; endogenous in cells
Sequence (O35433 whole entry): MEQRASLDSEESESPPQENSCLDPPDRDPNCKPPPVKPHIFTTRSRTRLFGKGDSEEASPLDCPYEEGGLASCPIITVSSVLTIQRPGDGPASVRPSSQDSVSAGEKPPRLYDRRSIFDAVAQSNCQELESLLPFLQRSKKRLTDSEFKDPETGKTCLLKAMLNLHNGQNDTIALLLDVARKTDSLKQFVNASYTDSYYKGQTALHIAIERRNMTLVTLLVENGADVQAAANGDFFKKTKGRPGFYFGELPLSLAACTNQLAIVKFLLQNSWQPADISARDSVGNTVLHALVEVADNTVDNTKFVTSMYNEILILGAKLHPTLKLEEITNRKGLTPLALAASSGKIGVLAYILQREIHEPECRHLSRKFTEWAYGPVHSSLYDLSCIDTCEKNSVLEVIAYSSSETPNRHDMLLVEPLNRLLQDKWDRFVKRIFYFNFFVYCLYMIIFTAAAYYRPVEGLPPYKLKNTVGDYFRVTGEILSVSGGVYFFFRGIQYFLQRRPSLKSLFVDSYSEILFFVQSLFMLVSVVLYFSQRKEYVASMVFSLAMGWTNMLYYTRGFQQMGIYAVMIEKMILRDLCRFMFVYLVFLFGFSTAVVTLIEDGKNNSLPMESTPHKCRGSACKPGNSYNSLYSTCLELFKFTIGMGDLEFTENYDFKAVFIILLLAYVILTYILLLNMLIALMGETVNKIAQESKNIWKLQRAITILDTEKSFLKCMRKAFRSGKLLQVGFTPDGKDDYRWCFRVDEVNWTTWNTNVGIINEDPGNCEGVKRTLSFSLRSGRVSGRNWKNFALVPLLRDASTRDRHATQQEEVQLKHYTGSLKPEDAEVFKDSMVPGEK
Experiment: Ca2+ fluorescence measurements in cultured rat trigeminal ganglia neurons: inhibition of capsaicin-induced calcium mobilisation
Details: capsaicin 0.1 μM; 10 minutes pre-incubation; mean and 95% fiducial limits; read-out: IC50 inhibiting capsaicin-evoked [Ca2+]i mobilization
TEST_READOUT: IC50 (nM)
Just the number in nM, nothing appended.

COc1cc(CNC(=S)NCc2ccc(C(C)(C)C)cc2)c(Cl)cc1O :: 3.86
COc1cc(CNC(=S)NCc2ccc(C(C)(C)C)cc2)c(I)cc1O :: 3.48
COc1cc(CNC(=S)NCc2ccc(C(F)(F)F)cc2)c(I)cc1O :: 70

Now take the following molecule into account.
Recorded IC50 (molecule Oc1cc2c(cc1O)CN(C(=S)NCCc1ccc(Cl)cc1)CCC2 [capsazepine, reference compound] ): 2340

Hello, the source for this data is patent US7964642B2, in case you need it.
